B1: GAGE1 (parent)
chain: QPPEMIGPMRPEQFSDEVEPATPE

Variants of: B1
Experiment: protein stability index of a GFP-peptide fusion (GPS, HEK-293T) (PSI 1-6); higher = more stable;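 further: lentivirally expressed fusions sorted by FACS into six bins by GFP to DsRed ratio, PSI derived from sequencing read proportions per bin multiplied by bin number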
Conditions: c terminus: a fixed tail appended

Variant Spec: P2N
protein stability index: 5.34

Variant Spec: P11L
protein stability index: 5.37

Variant Spec: V18L
protein stability index: 4.59

Variant Spec: M9N
protein stability index: 4.68

Variant Spec: P23T
protein stability index: 4.81

Variant Spec: E12R
protein stability index: 5.71

Variant Spec: E19I
protein stability index: 5.05

Variant Spec: E4L
protein stability index: 5.54

Variant Spec: I6T
protein stability index: 5.72

Variant Spec: D16L
protein stability index: 5.32

Variant Spec: P8R
protein stability index: 5.24

Variant Spec: T22R
protein stability index: 4.61

Variant Spec: E19D
protein stability index: 5.25

Variant Spec: P3D
protein stability index: 5.75

Variant Spec: G7V
protein stability index: 5.68

Variant Spec: T22V
protein stability index: 4.8

Variant Spec: A21E
protein stability index: 5.21

Variant Spec: P23M
protein stability index: 5.05

Variant Spec: R10Q
protein stability index: 4.4

Variant Spec: M5N
protein stability index: 5

Variant Spec: E24R
protein stability index: 4.27

Variant Spec: M9G
protein stability index: 5.5
